# TEST TARGET: Feline_OSMR_hlgG1_Fc (feline)
# Sequence (chain, as listed by the source limits assumed, form in doubt): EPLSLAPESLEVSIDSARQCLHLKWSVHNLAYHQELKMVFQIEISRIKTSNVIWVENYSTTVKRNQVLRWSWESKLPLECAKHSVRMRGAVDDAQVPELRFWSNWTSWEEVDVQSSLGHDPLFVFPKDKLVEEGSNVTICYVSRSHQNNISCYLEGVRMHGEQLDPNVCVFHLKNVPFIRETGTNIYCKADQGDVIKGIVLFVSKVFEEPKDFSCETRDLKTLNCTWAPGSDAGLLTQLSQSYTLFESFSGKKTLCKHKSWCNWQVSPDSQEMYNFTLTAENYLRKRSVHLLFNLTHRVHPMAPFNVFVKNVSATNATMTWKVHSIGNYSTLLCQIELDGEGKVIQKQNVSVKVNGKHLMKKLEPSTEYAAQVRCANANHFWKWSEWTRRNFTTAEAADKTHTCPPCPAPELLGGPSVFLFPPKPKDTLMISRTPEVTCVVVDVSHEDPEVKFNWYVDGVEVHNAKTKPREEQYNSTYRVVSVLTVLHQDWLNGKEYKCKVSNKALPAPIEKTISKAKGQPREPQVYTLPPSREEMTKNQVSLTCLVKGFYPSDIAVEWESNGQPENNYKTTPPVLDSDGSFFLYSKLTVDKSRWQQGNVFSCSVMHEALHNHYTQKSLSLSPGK
# ASSAY REMARKS: indirect ELISA, fOSMR coated; OD ratio to antibody expression control
Let's look at some binders and their measured ELISA ratio.
Give the value in OD ratio but do not write OD ratio after it.

Here are 4 binders together with their reported answers.
BINDER | ELISA ratio / OD ratio
Mu_10F07_VH (SEQ ID NO: 39)_D99A (antibody, V domains shown) VH: DVKLVESGEGLVKPGGSLKLSCAASGFTFSSYAMSWVRQTPEKRLEWVTYISSGGDYFYYADTVKGRFTISRDNARNTLYLQMSSLKSEDTAMYYCTRAPITGTFAYWGQGTLVTVSA VL: DIQMTQTTSSLSASLGDRVTISCRASQDITNYLNWYQQKPDGTVKLLIYYTSTLHSGVPSRFSGSGSGTDFSLTISNLEQEDIATYFCQQGHMLPWTFGGGTKLEIKR | 0.545
Mu_19F07_VH (SEQ ID NO: 47)_W102A (antibody, V domains shown) VH: EVKLVESEGGLVQPGSSMKLSCTASGFTFSDYYMAWVRQVPEKGLEWVANINYDGSSTYYLDSLKSRFIISRDNAKNILYLQMSSLKSEDTATYYCARGLTADFDVWGTGTTVTVSS VL: DIVMTQSHKFMSPSVGDRVSITCKASQDVDTAVAWYQQKPGQSPKLLIYLASTRHTGVPDRFTGSGSGTDFTLTISNVQSEDLADYFCQQYSRFPLTFGAGTKLELKR | 0.057
Mu_09E09_VH (SEQ ID NO: 35)_T102A (antibody, V domains shown) VH: DVKLVESGEGLVKPGGSLKLSCAASGFTFSSYAMSWVRQTPEKRLEWVAYISSGGDYIYYADTVKGRFTISRDNARNTLYLQMSSLKSEDTAMYYCTRDPIAGTFAYWGQGTLVTVSA VL: DLQMTQTTSSLSASLGDRVTISCRASQDINNYLNWYQQKPDGTVKLLIYYTSTLHSGVPSRFSGSGSGTDYSLTISNLEQEDIATYFCQQGNTLPWTFGGGTKLEIKR | 0.388
Mu_09E09_VL (SEQ ID NO: 37)_Y32A (antibody, V domains shown) VH: DVKLVESGEGLVKPGGSLKLSCAASGFTFSSYAMSWVRQTPEKRLEWVAYISSGGDYIYYADTVKGRFTISRDNARNTLYLQMSSLKSEDTAMYYCTRDPITGTFAYWGQGTLVTVSA VL: DLQMTQTTSSLSASLGDRVTISCRASQDINNALNWYQQKPDGTVKLLIYYTSTLHSGVPSRFSGSGSGTDYSLTISNLEQEDIATYFCQQGNTLPWTFGGGTKLEIKR | 0.092

Q: Give a short answer stating reported ELISA ratio for Mu_02D09_VH (SEQ ID NO: 31)_D99A (antibody, V domains shown) VH: EVQLVESGGGLVKPGGSLTLSCAASGFTFSDYGMHWLRQAPEKGLEWVAYISSGSRAVFFADTVKGRFTISRDNAKNTLFLQMTSLRSDDTAMYYCARARYDGRGFAYWGQGTLVTVSA VL: DIVLTQSPATLSVTPGDSVSLSCRASQSISNNLHWYQQTSHESPRLLITYASQSISGIPSRFSGSGSGTDFTLSINSVETEDFGMYFCQQSNSWPLTFGAGTKLELKR .
A: 0
